Each recorded value in this set is attributed to patent US11952344B2.

Biological target: Human NMDA (NR1/NR2B) Receptor (Homo sapiens, UniProt Q13224)
Construct: host or cells: HEK293
Sequence (Q13224 27-1484, other chains not shown): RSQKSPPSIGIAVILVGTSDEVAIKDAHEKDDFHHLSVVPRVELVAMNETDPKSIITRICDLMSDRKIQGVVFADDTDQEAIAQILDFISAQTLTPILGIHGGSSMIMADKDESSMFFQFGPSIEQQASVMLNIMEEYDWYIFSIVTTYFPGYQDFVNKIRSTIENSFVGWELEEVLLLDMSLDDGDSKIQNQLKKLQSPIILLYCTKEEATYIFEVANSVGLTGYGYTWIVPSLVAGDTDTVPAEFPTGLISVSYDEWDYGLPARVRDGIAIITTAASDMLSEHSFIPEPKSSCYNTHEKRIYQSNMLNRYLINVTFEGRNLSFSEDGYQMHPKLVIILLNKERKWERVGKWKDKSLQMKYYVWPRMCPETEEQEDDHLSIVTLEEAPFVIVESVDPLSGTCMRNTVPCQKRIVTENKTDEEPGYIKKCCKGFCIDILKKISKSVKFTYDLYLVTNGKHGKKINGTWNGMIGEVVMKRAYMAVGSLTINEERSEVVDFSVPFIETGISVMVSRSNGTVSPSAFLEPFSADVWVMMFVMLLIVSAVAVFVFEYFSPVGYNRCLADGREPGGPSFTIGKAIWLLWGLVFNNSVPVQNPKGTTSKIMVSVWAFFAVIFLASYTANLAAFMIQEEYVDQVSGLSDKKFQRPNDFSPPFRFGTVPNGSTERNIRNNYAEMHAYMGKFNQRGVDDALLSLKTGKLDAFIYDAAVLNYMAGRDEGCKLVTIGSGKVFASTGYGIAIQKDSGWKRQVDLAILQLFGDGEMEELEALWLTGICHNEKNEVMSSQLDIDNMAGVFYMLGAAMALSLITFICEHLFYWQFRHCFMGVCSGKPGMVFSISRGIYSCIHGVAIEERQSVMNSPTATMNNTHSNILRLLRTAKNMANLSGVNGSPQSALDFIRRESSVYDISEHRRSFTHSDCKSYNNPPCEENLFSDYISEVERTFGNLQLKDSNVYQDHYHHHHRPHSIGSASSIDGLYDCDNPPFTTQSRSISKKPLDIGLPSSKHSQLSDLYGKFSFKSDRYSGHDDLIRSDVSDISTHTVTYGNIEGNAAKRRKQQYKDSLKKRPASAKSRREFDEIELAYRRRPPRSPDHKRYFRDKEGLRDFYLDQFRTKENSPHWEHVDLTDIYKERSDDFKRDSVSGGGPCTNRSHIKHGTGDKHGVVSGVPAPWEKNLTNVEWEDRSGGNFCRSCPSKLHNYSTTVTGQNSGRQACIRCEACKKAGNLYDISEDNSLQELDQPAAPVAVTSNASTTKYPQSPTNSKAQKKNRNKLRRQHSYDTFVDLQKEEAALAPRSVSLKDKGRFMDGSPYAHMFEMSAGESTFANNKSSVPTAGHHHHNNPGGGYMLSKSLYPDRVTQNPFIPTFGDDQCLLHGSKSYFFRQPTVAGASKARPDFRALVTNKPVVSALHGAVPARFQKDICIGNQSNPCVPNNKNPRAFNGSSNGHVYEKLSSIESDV
Assay: NR2B Ca2+ influx assay
Type: cell-based
Conditions: 10 μM compound; HEK293 cells expressing GRIN1 and GRIN2B; glutamic acid/glycine-induced Ca2+ influx, Fluo-4 fluorescence; read-out: inhibitory rate (10 μM compound concentration)
Test readout: inhibition at 10 µM (%)

Compound structure | inhibition at 10 µM [%]
CCOc1ncc(C(=O)NCc2cnccc2C)cc1F | 91
COc1ccncc1CNC(=O)c1ccc(C(F)(F)F)c(F)c1 | 90
CC(F)(F)c1ncncc1CNC(=O)c1cnc(OC(F)F)c(F)c1 | 92
